Biological target: Streptavidin (Streptomyces avidinii)
Assay: compounds binding control protein streptavidin – biophysical, small-molecule microarray, 635/667 nm fluorescence, artefact control for SMM compound annotation, primary screen (AID 1147);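 note: signal reflects streptavidin binding to arrayed compounds as a control protein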
Conditions: higher = more signal
quantity-measured: composite z-score

Challenge: Item C=CCC(OC(C)=O)[C@@H]1[C@@H](N(Cc2ccc(-c3ccccc3)cc2)C(=O)c2ccc(C)cc2)c2cc(OCCCO)ccc2N1C(=O)Cc1ccc(OC)cc1 (stereo partly specified) with Streptavidin (Streptomyces avidinii) - composite z-score?
Response given: 1.36

Challenge: Item `CN(C)CCCCCCNC(=O)[C@@H]1C[C@@H]2C(=O)N[C@@H](Cc3ccccc3)C(=O)N2[C@@H]1c1cccc(OCCO)c1` with Streptavidin (Streptomyces avidinii) - composite z-score?
Response given: 0.0978

Challenge: Item `CCCNC(=O)[C@@]1(c2ccc([N+](=O)[O-])cc2)CC(=O)N(CC23CC4CC(CC(C4)C2)C3)[C@@H]1c1ccc(CO)cc1I` with Streptavidin (Streptomyces avidinii) - composite z-score?
Response given: 0.131

Challenge: Item C=CCC(OC(C)=O)[C@@H]1[C@@H](N(Cc2cc3ccccc3o2)C(=O)c2ccc(C)cc2)c2cc(OCCCO)ccc2N1C(=O)c1ccc(-c2ccccc2)cc1 (stereo partly specified) with Streptavidin (Streptomyces avidinii) - composite z-score?
Response given: 0.0073

Challenge: Item `CC(C)NC(=O)[C@@]1(c2ccc([N+](=O)[O-])cc2)CC(=O)N(C(C)C)[C@@H]1c1ccc(CO)cc1` with Streptavidin (Streptomyces avidinii) - composite z-score?
Response given: -1.26

Challenge: Item `COc1ccc(C#Cc2ccc3c(c2)[C@]2(C(=O)N3)[C@H](C(=O)N3CCN(c4ncccn4)CC3)[C@H]3C(=O)O[C@H](c4ccccc4)[C@H](c4ccccc4)N3[C@@H]2c2ccc(O)cc2)cc1` with Streptavidin (Streptomyces avidinii) - composite z-score?
Response given: 1.04

Challenge: Item `[N-]=[N+]=Nc1ccccc1[C@H]1OC(c2ccc(OCCCO)cc2)=N[C@@]1(CCS(=O)(=O)c1ccccc1)C(=O)N1CCOCC1` with Streptavidin (Streptomyces avidinii) - composite z-score?
Response given: 0.877

Challenge: Item CCN(CC)c1ccc(N2CC=CC34O[C@@H]5C=CCCOC(=O)C5[C@H]3C(=O)N(CCCO)[C@@H]4C2=O)cc1 (stereo partly specified) with Streptavidin (Streptomyces avidinii) - composite z-score?
Response given: -0.619

Challenge: Item `COc1ccc([Si](C)(C)[C@H]2[C@H](CC(=O)N(CCO)Cc3ccccc3)O[C@@]3(C(=O)N(Cc4cccc(N5C(=O)c6cccc7cccc5c67)c4)c4ccccc43)[C@@H]2C)cc1` with Streptavidin (Streptomyces avidinii) - composite z-score?
Response given: 0.544

Challenge: Item COCC1C2CC[C@H]3C(OCc4ccc(F)cc4C(F)(F)F)OC[C@]4(C)[C@H]3C2=C(CN4C(=O)OC(C)(C)C)[C@H](C)C1COC (stereo partly specified) with Streptavidin (Streptomyces avidinii) - composite z-score?
Response given: 1.2

Challenge: Item `COCCOC(=O)N1C(=O)[C@@]2(c3cc(C#CCCO)ccc31)[C@H](c1ccc(O)cc1)N1[C@H](c3ccccc3)[C@H](c3ccccc3)OC(=O)[C@H]1[C@@H]2C(=O)N1CCCCCCC1` with Streptavidin (Streptomyces avidinii) - composite z-score?
Response given: 0.825

Challenge: Item Cc1ccc(C(C)CC(O)C2C=CC3C(=O)NC(=O)C3N2Nc2ccccn2)o1 (stereo unspecified) with Streptavidin (Streptomyces avidinii) - composite z-score?
Response given: -0.585

Challenge: Item `COc1ccc([Si](C)(C)[C@@H]2[C@@H](CCO)O[C@]3(C(=O)N(Cc4cccc(N(C=O)c5ccccc5)c4)c4ccccc43)[C@H]2C)cc1` with Streptavidin (Streptomyces avidinii) - composite z-score?
Response given: 0.156

Challenge: Item `CCCNC(=O)[C@@]1(C)c2ccccc2C(=O)N(Cc2cc(F)cc(C(F)(F)F)c2)[C@H]1c1ccc(CO)cc1` with Streptavidin (Streptomyces avidinii) - composite z-score?
Response given: -0.767

Challenge: Item `C=CCOC(=O)[C@@H]1[C@H]2C(=O)O[C@H](c3ccccc3)[C@H](c3ccccc3)N2[C@H](c2ccc(OCCOC(=O)[C@H]3C[C@H]4C(=O)N[C@@H](CCCC[N+](C)(C)C)C(=O)N4[C@H]3c3cccc(OCCO)c3)cc2)[C@@]12C(=O)Nc1ccc(I)cc12` with Streptavidin (Streptomyces avidinii) - composite z-score?
Response given: 0.128

Challenge: Item `C=C(C(=O)CC[C@@H](OC(C)=O)c1ccc(OCCO)cc1)C(C)C` with Streptavidin (Streptomyces avidinii) - composite z-score?
Response given: -0.41

Challenge: Item [N-]=[N+]=NCc1ccccc1[C@H]1OC(c2ccc(OCCCO)cc2)=N[C@@]1(Cc1ccccc1)C(=O)NCC(O)CO (stereo partly specified) with Streptavidin (Streptomyces avidinii) - composite z-score?
Response given: 0.496

Challenge: Item `C=CCOC(=O)[C@@H]1[C@H]2C(=O)O[C@H](c3ccccc3)[C@H](c3ccccc3)N2[C@H](c2ccc(OCCOC(=O)[C@H]3C[C@H]4C(=O)N[C@@H](CC(C)C)C(=O)N4[C@H]3c3cccc(OCCO)c3)cc2)[C@@]12C(=O)Nc1ccc(I)cc12` with Streptavidin (Streptomyces avidinii) - composite z-score?
Response given: 0.332

Challenge: Item `O=C1C[C@@](C(=O)O)(c2ccc([N+](=O)[O-])cc2)[C@@H](c2ccc(CO)cc2I)N1CC12CC3CC(CC(C3)C1)C2` with Streptavidin (Streptomyces avidinii) - composite z-score?
Response given: 0.975

Challenge: Item O=C1C2C=CC(C(O)c3ccc(B(O)O)cc3)N(Nc3ccc([N+](=O)[O-])cc3)C2C(=O)N1c1ccccc1 (stereo unspecified) with Streptavidin (Streptomyces avidinii) - composite z-score?
Response given: 0.759

Challenge: Item `COCCOC(=O)N1C(=O)[C@@]2(c3cc(C#CCC(C(=O)OC)C(=O)OC)ccc31)[C@H](c1ccccc1OCCO)N1[C@H](c3ccccc3)[C@H](c3ccccc3)OC(=O)[C@H]1[C@@H]2C(=O)Nc1nc2ccccc2s1` with Streptavidin (Streptomyces avidinii) - composite z-score?
Response given: 0.129

Challenge: Item O=C1C2C=CC(C(O)c3cccc4ccccc34)N(n3cnnc3)C2C(=O)N1Cc1ccccc1 (stereo unspecified) with Streptavidin (Streptomyces avidinii) - composite z-score?
Response given: 0.225

Challenge: Item CCOC1=C2C(c3ccc(C)cc3)N(S(=O)(=O)c3ccc(C)cc3)CC2n2c(=O)n(-c3ccccc3)c(=O)n2C1 (stereo unspecified) with Streptavidin (Streptomyces avidinii) - composite z-score?
Response given: 1.09

Challenge: Item `C=C(COC)C(=O)CC[C@H](OC(=O)c1cccnc1)c1ccccc1OCCO` with Streptavidin (Streptomyces avidinii) - composite z-score?
Response given: 0.279

Challenge: Item `CCCC[C@@H]1C[C@H]1[C@@H](NC(=O)c1ccco1)c1ccccc1` with Streptavidin (Streptomyces avidinii) - composite z-score?
Response given: -1.27

Challenge: Item CC(c1ccccc1)C(O)C1C=CC2C(=O)N(c3ccccc3)C(=O)C2N1Nc1ccccc1F (stereo unspecified) with Streptavidin (Streptomyces avidinii) - composite z-score?
Response given: 0.527
